Provide the recorded pKd for the entries that follow.
system-under-test: T1, TGFβ1 (R&D Systems)
T1 construct: also called TGFB1
T1 sequence (P01137 279-390): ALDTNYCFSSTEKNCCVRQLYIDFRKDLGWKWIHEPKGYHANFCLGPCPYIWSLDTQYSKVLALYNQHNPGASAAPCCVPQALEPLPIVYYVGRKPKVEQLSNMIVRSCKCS
experiment-summary: single point SPR
pKd here is simply -log10 of the concentration when that concentration is written in mol/L.

Looking up Can-SL501-VH3 S112P / Can-SL501-VL2 (antibody, V domains shown) VH: EVQLVESGGDLVKPGGSLRLSCVASGFTFSSYGMHWVRQAPGKELEWVAVISYDGSIKYYADAVKGRFTISRDNAKNTLYLQMNSLRAEDTAVYYCARTGEYSGYDTDPQYPWGQGTTVTVSS VL: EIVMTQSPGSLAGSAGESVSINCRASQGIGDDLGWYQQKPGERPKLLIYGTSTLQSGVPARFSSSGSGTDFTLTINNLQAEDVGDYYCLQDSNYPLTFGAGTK , I found its pKd recorded as 8.55

Looking up Can-SL501-VH3 D108S / Can-SL501-VL2 (antibody, V domains shown) VH: EVQLVESGGDLVKPGGSLRLSCVASGFTFSSYGMHWVRQAPGKELEWVAVISYDGSIKYYADAVKGRFTISRDNAKNTLYLQMNSLRAEDTAVYYCARTGEYSGYDTSPQYSWGQGTTVTVSS VL: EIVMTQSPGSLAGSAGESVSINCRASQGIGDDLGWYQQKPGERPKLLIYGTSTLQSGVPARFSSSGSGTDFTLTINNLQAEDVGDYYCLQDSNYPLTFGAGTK , I found its pKd recorded as 9.14

Looking up Can-SL501-VH3 Q110N / Can-SL501-VL2 (antibody, V domains shown) VH: EVQLVESGGDLVKPGGSLRLSCVASGFTFSSYGMHWVRQAPGKELEWVAVISYDGSIKYYADAVKGRFTISRDNAKNTLYLQMNSLRAEDTAVYYCARTGEYSGYDTDPNYSWGQGTTVTVSS VL: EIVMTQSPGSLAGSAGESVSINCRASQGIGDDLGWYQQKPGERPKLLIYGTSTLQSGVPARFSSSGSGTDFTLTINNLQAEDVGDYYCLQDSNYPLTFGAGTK , I found its pKd recorded as 8.25

Looking up Can-SL501-VH3 P109G / Can-SL501-VL2 (antibody, V domains shown) VH: EVQLVESGGDLVKPGGSLRLSCVASGFTFSSYGMHWVRQAPGKELEWVAVISYDGSIKYYADAVKGRFTISRDNAKNTLYLQMNSLRAEDTAVYYCARTGEYSGYDTDGQYSWGQGTTVTVSS VL: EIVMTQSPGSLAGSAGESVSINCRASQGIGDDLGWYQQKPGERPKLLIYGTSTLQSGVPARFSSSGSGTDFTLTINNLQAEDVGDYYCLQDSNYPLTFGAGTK , I found its pKd recorded as 8.80

Looking up Can-SL501-VH3 D108R / Can-SL501-VL2 (antibody, V domains shown) VH: EVQLVESGGDLVKPGGSLRLSCVASGFTFSSYGMHWVRQAPGKELEWVAVISYDGSIKYYADAVKGRFTISRDNAKNTLYLQMNSLRAEDTAVYYCARTGEYSGYDTRPQYSWGQGTTVTVSS VL: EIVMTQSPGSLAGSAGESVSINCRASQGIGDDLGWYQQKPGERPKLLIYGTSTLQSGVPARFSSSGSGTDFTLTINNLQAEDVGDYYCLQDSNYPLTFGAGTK , I found its pKd recorded as 9.12

Looking up Can-SL501-VH3 Y111V / Can-SL501-VL2 (antibody, V domains shown) VH: EVQLVESGGDLVKPGGSLRLSCVASGFTFSSYGMHWVRQAPGKELEWVAVISYDGSIKYYADAVKGRFTISRDNAKNTLYLQMNSLRAEDTAVYYCARTGEYSGYDTDPQVSWGQGTTVTVSS VL: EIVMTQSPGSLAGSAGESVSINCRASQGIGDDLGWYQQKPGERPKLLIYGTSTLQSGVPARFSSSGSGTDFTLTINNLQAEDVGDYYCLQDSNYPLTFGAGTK , I found its pKd recorded as 9.03

Looking up Can-SL501-VH3 Q110D / Can-SL501-VL2 (antibody, V domains shown) VH: EVQLVESGGDLVKPGGSLRLSCVASGFTFSSYGMHWVRQAPGKELEWVAVISYDGSIKYYADAVKGRFTISRDNAKNTLYLQMNSLRAEDTAVYYCARTGEYSGYDTDPDYSWGQGTTVTVSS VL: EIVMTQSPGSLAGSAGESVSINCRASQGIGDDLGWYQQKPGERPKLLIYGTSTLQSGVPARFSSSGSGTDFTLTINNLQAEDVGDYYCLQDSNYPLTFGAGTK , I found its pKd recorded as 8.10
